# TGI per record follows
Test system: HCT-116 colon
Assay protocol: NCI tumour cell line growth inhibition, 48 h

| Compound | TGI |
| --- | --- |
| O=S(=O)([O-])[O-].[OH3+].[OH3+].[OH3+].[Ru+2].c1ccccc1 | > 100 µM |
| CC(C)(C)NNC(=O)/C(=C/c1ccc(Oc2ccc(Cl)c(Cl)c2)cc1)NC(=O)c1ccccc1 | > 100 µM |
| CC(C(=O)N1C(=O)N(C(=O)C(C)C(O)c2ccccc2)C(c2ccccc2)C1c1ccccc1)C(O)c1ccccc1 (configuration not stated) | 26.7 µM |
| CCCCCCCCCCCCCS(=O)(=O)O | > 100 µM |
| CCn1c(=O)c(-c2ccn[nH]2)cc2c(C)nc(N)nc21 | > 100 µM |
| COc1cc2oc(=O)cc(C)c2cc1[N+](=O)[O-] | 32.3 µM |

Field: next compound
Query :: Record request: TGI value, item `CN1CCCN2CCN(C)CCN(CC1)CC2`
Result :: > 100 µM

====

System: U251 CNS
Assay protocol: NCI tumour cell line growth inhibition, 48 h
Measured TGI values are reported for all entries that follow.

| Molecule | Measured on | TGI |
| --- | --- | --- |
| C=C1C(=O)O[C@H]2[C@H]1CC/C(COC(=O)C(=O)c1c[nH]c3ccccc13)=C\CC[C@@]1(C)O[C@@H]21 | U251 CNS | 3.64 µM |
| O=c1c(O)c(-c2ccc(O)cc2O)oc2cc(O)cc(O)c12 | U251 CNS | > 100 µM |

Query :: What TGI value was documented for this molecule, `OCCN(CCO)N=Nc1ccc(-c2nc3ccccc3[nH]2)cc1` ?
Result :: 37.4 µM

Query :: Please answer likewise for `COc1ccc2[nH]c(CCNC(=O)c3cc([N+](=O)[O-])cc([N+](=O)[O-])c3)cc2c1`
Result :: 78.1 µM

Query :: Please answer likewise for `CC(=O)Nc1ccc(/C=C(\NC(=O)c2ccccc2)c2nc3ccc4c(c3[nH]2)C(=O)c2ccccc2C4=O)cc1`
Result :: > 100 µM

Query :: Next entry: O=C(O)c1ccc(NC(=O)C2C(=O)C(=O)N(c3ccc(C(=O)O)cc3)C2=O)cc1 (stereo unspecified)
Result :: > 100 µM

Query :: Same question, `CSC1=N/C(=C\c2ccc(C)cc2)C(=O)N1CN1CCOCC1` this time
Result :: > 100 µM

====

Known TGI of a selection of compounds
Tested on: SK-OV-3 ovarian
Assay protocol: NCI tumour cell line growth inhibition, 48 h
Where a SMILES comes first, the peptide text is derived from it.

| Compound | Reported metric | Val |
| --- | --- | --- |
| O=C1c2ccccc2-c2c1c1ccccc1c(=O)n2CCCNCCCn1c2c(c3ccccc3c1=O)C(=O)c1ccccc1-2 | TGI | 40.5 µM |
| CC1NC(=O)CNC(=O)CNC(=O)C(Cc2ccc(O)cc2)NC(=O)C(C(C)C)NC(=O)C(C)NC1=O (stereo unspecified) (cyclo(GGAAVY); configuration not given here) | TGI | > 100 µM |
| CN(C)CCCNc1c(O)c2c(c(O)c1Cl)C(=O)C=CC2=O | TGI | > 10 µM |
| C/C(=N\N=C(N)N)C(CN(CC(C)C)CC(C)C)C(=O)Nc1ccc(C)cc1C (stereo unspecified) | TGI | > 100 µM |
| Cc1ccc(/C=C2\CN(C)CC3=C2OC(N)=C(C#N)C3c2ccc(C)cc2)cc1 (stereo unspecified) | TGI | 35.3 µM |

Query :: Entry under review: `COc1ccc(C(=O)Cn2c(C(=O)c3ccc(OC)cc3)nc3ccccc32)cc1` . Reported TGI?
Result :: > 100 µM

Query :: // same read-out, input: CC(C)(C)[Si](C)(C)OCC1CCC(n2cnc3c(NC(=O)c4ccccc4)ncnc32)O1 (stereo unspecified)
Result :: 44.9 µM

Query :: Moving on to the next compound: CC(C)(C)OC(=O)[N+](=N)C(=O)C1CCC(=O)N1C(=O)OCc1ccccc1 (stereo unspecified)
Result :: > 100 µM

Query :: What do we get for `Cn1ncc(=S)[nH]c1=S` ?
Result :: > 100 µM

Query :: Now consider `Cn1c(C(N)=O)cc2c1-c1nc(Nc3ccccc3)ncc1CCC2` and answer again.
Result :: 20.8 µM

Query :: Thanks! And `CC(=O)/C(C=Nc1c(C)n(C)n(-c2ccccc2)c1=O)=C(/C)O` ?
Result :: > 100 µM

Query :: Try `Cc1ccc(Nc2nc(=S)[nH]c3[nH]ncc23)cc1` next.
Result :: > 100 µM

Query :: Then what about the compound `Cc1ccc(NC(=O)c2[nH]c(=S)nc(N)c2-c2ccccc2C)cc1C` ?
Result :: > 100 µM
